Values from PubChem BioAssay AID1159580

experimentalProtocol: chemical genetic growth profiling, strain panel (AID 1159580)
testParameters: S. cerevisiae deletion strains, growth OD, locus YNL175C, strain NOP13, hits give low values
In all, about 5,500 compounds went through this assay and about 2,000 (36%) were called active. Not shown: some 18% with an inconclusive outcome. The list shows a part of the results.
measurementKind: normalized growth
Provide a numeric answer; units are not to be included.

Q) // lookup normalized growth for N=c1ccn2c(n1)OC1C(O)[C@@H](CO)O[C@H]12 (stereo partly specified)
A) 1

Q) Give its normalized growth value. Item: "O=c1c2ccccc2[se]n1-c1ccccc1"
A) 0.998

Q) What normalized growth value was documented for this compound, "Nc1nc(N)c2nc(-c3ccccc3)c(N)nc2n1" ?
A) 0.987

---

experimentalProtocol: chemical genetic growth profiling, strain panel (AID 1159580)
testParameters: S. cerevisiae deletion strains, growth OD, locus YOR270C, strain vph1, hits give low values
The campaign covered roughly 5,500 compounds. About 2,000 (36%) were called active. Roughly 18% stayed inconclusive and do not appear here. The other results are listed elsewhere or left out.
measurementKind: normalized growth
The response must contain the number and no unit.

Before answering, review these 5 worked examples.
{"columns": ["molecule", "normalized growth"],
 "data": [
  ["CC1=NCCc2c1[nH]c1cc(O)ccc21", 1.02],
  ["CC(=O)Oc1ccc(-c2cc(=O)c3c(OC(C)=O)cc(OC(C)=O)cc3o2)cc1", 0.899],
  ["COc1ccc(-c2cc(=O)c3c(OC(C)=O)cc(OC(C)=O)cc3o2)cc1", 0.889],
  ["CC1(C)O[C@@H]2CC3C4C[C@H](F)C5=CC(=O)C=CC5(C)C4C(O)CC3(C)[C@]2(C(=O)CO)O1 (stereo partly drawn)", 0.955],
  ["CC(=O)[C@H]1CCC2C3CC=C4C[C@@H](O)CC[C@]4(C)C3CC[C@@]21C (stereo partly drawn)", 0.783]
]}

Q) Entry "CCN(CC)CCNc1ccc(CO)c2sc3ccccc3c(=O)c12" has what normalized growth?
A) 0.976

Q) Entry "C[N+]1(CCCCC[N+]2(C)CCCC2)CCCC1" : reported normalized growth = ?
A) 1.02

---

The entries below are paired with their reported normalized growth.
experimentalProtocol: chemical genetic growth profiling, strain panel (AID 1159580)
testParameters: S. cerevisiae deletion strains, growth OD, locus YDR335W, strain msn5, hits give low values
Hit rate of the full screen: of about 5,500 compounds, about 2,000 (36%) were called active. Another 18% or so got no clear call; they are omitted. The other results are listed elsewhere or left out.
No unit in the answer, only the number.

Answered examples (5):
{"columns": ["compound", "normalized growth"],
 "data": [
  ["CC(=O)OCC(=O)[C@H]1CCC2C3CC=C4C[C@@H](O)CC[C@]4(C)C3CC[C@@]21C (some centres undefined)", 0.908],
  ["COc1cc([C@@H]2c3cc4c(cc3[C@H](OC(C)=O)[C@H]3COC(=O)[C@H]23)OCO4)cc(OC)c1OC", 0.998],
  ["CC(=O)[C@H]1CCC2C3CC=C4C[C@@H](OC(=O)CCC(=O)O)CC[C@]4(C)C3CC[C@@]21C (some centres undefined)", 0.977],
  ["CC(=O)OCC(=O)[C@@]1(O)CCC2C3CC[C@@H]4C[C@H](O)CC[C@]4(C)C3C(=O)C[C@@]21C (some centres undefined)", 1.01],
  ["COc1cc([C@@H]2c3cc4c(cc3[C@H](O)[C@H]3COC(=O)[C@@H]23)OCO4)cc(OC)c1OC", 1.02]
]}

Now take the following compound into account.
Q) GET /values?readout=normalized growth&item= "NS(=O)(=O)c1cc2c(cc1C(F)(F)F)NCNS2(=O)=O"
A) 0.999

---

experimentalProtocol: chemical genetic growth profiling, strain panel (AID 1159580)
testParameters: S. cerevisiae deletion strains, growth OD, locus YIL125W, strain kgd1, hits give low values
About 2,000 (36%) of roughly 5,500 compounds were called active. Inconclusive results (about 18%) are left out. Some of the results follow.
measurementKind: normalized growth
In your answer, state the number alone without any accompanying words.

Consider the reported normalized growth for these compounds:
{"columns": ["compound", "normalized growth"],
 "data": [
  ["CCCCCCc1ccc(O)cc1O", 0.88],
  ["CCCCCCCCCc1ccc(O)cc1", 0.405],
  ["CC1(C)O[C@@H]2CC3C4C[C@H](F)C5=CC(=O)C=CC5(C)C4C(O)CC3(C)[C@]2(C(=O)CO)O1 (stereo partly specified)", 0.99],
  ["CCC(/C=C/[C@@H](C)[C@H]1CCC2C3CC=C4C[C@@H](O)CC[C@]4(C)C3CC[C@@]21C)C(C)C (stereo partly specified)", 1.02],
  ["CCC/C=C/C=C/[C@@H]1C[C@@H](O)[C@@H](O)C(=O)[C@H]1C=O", 0.853]
]}

API: the following record is the query input.
Q) What value of measured normalized growth is listed for "CCCCC1C(=O)N(c2ccccc2)N(c2ccccc2)C1=O" ?
A) 0.98

---

experimentalProtocol: chemical genetic growth profiling, strain panel (AID 1159580)
testParameters: S. cerevisiae deletion strains, growth OD, locus YNL128W, strain TEP1, hits give low values
The campaign covered roughly 5,500 compounds. About 2,000 (36%) were called active. Not shown: some 18% with an inconclusive outcome. Some of the results follow.
measurementKind: normalized growth
Respond using a number only.

Previously resolved entries follow.
{"columns": ["compound", "normalized growth"],
 "data": [
  ["C=C1C2CC[C@@]3(C)[C@H](c4ccoc4)OC(=O)C[C@]13O[C@H]1CC(=O)C(C)(C)[C@H](C(O)C(=O)OC)[C@@]21C (stereo not given in full)", 1.01],
  ["Cc1cc2cc3c(C)cc(=O)oc3c(C)c2o1", 0.975],
  ["COc1cc(O)c2c(=O)c(-c3ccc(O)cc3)coc2c1", 0.96],
  ["COc1cc2c(cc1OC)-c1cc3ccc(OC)c(OC)c3c[n+]1CC2", 0.999],
  ["COc1ccc(-c2coc3cc(OC)cc(O)c3c2=O)cc1", 0.994],
  ["COCCOC(=O)C1=C(C)NC(C)=C(C(=O)OC(C)C)C1c1cccc([N+](=O)[O-])c1 (stereo not given)", 1.01]
]}

Q) Need normalized growth, item "COc1c(O)cc2c(-c3ccccc3)cc(=O)oc2c1OC"
A) 1

Q) Tell me the measured normalized growth of "CC1=NCCc2c1[nH]c1cc(O)ccc21" , please.
A) 0.97

Q) What does the data say about its normalized growth? Entry: "COc1cc2cc[n+]3cc4c(OC)c(OC)ccc4cc3c2cc1OC"
A) 0.995

Q) Could you share which normalized growth value was measured for CC1(C)O[C@@H]2CC3C4C[C@H](F)C5=CC(=O)C=C[C@]5(C)[C@@]4(F)[C@@H](O)C[C@]3(C)[C@]2(C(=O)CO)O1 (stereo not given in full) ?
A) 1.01

---

experimentalProtocol: chemical genetic growth profiling, strain panel (AID 1159580)
testParameters: S. cerevisiae deletion strains, growth OD, locus YJR066W, strain TOR1 (second series)
Out of some 5,500 compounds screened, about 2,000 (36%) were called active. Inconclusive results (about 18%) are left out. No stated cut-off is given here; in the data, active means normalized growth mostly below about 0.91 (no sharp cut-off); inconclusive means no clear call, values can overlap the other calls; inactive means mostly above about 0.92. Some of the results follow.
// classify into yes (1) = active, no (0) = inactive

As a guide, the following entries are already answered.
{"columns": ["compound", "classAssignment"],
 "data": [
  ["CCCc1cnc(N2CCN(CC(=O)N(c3ccccc3)C3CCCCC3)CC2)nc1", "no (0)"],
  ["COc1ccc(C2CC(c3ccccc3)=Nc3ccccc3S2)cc1OC (centres undefined)", "no (0)"],
  ["O=C1c2ccccc2O[C@@H](c2ccccc2)[C@@H]1NCc1ccccc1", "no (0)"],
  ["N/C(CSc1ncccc1C(F)(F)F)=N/OC(=O)Nc1cccc(Cl)c1", "no (0)"],
  ["Cc1cc(C(=O)O/N=C(/N)CSc2ncccc2C(F)(F)F)no1", "no (0)"],
  ["C/C(=N/Nc1nc(C(C)(C)C)cs1)c1ccc(Cl)c(Cl)c1", "no (0)"]
]}

Q) Would you mind telling me which call this test gave "O=C(NCc1cccs1)c1csc(Cc2c(Cl)cccc2Cl)n1" ?
A) no (0)

Q) For this compound, state the assay outcome: "Cc1ccc2c(c1)CCCN2CC(=O)N(c1ccccc1)C1CCCCC1"
A) no (0)

Q) # outcome recorded in this test, key = "N#CCCCCOc1ccc2c(=O)cc(-c3ccccc3)oc2c1"
A) no (0)

Q) What outcome does the record of this test show for "C#Cc1cccc(N=Cc2cc(Cl)cc(Br)c2O)c1" ?
A) yes (1)

Q) What is the recorded call for this compound in the test? "O=C(CSCc1nc(-c2ccc(Cl)cc2)cs1)N/N=C\c1cccs1"
A) no (0)

Q) GET /call?item= "CCn1nc(C)cc1-c1nnc(Sc2ncc([N+](=O)[O-])s2)n1C" returns the recorded outcome of this test.
A) no (0)

Q) Dear all, I need the recorded test outcome for "O=C1c2ccccc2O[C@@H](c2ccccc2)[C@@H]1NC1CCCCC1" , thank you.
A) no (0)

Q) Each compound tested received a call. Report the one for "Fc1ccc(N/N=C\Cc2nnnn2-c2ccccc2)c(F)c1" .
A) yes (1)

Q) Dear colleague, could you share the recorded outcome for "N/C(CSc1ccc(Cl)cc1)=N/OC(=O)c1ccc(C(F)(F)F)cc1" when you have a moment?
A) no (0)

Q) Outcome logged for "CC(C)(C)c1cc2nc(C(F)(F)F)cc(NNC(=O)c3ccc(Cl)cc3)n2n1" in this assay:
A) no (0)

Q) Outcome logged for Cc1cc(C(=O)N(c2ccccc2)C(C)C2CC2)c(Cl)cc1Cl (centres undefined) in this assay:
A) no (0)

Q) Query: recorded result category for "CC(C)c1ccc(-c2cc(=O)c3ccccc3o2)cc1" in this test
A) no (0)

Q) # fetch the recorded call for CC(O)(CNCc1ccc(Cl)cc1)CSc1ccccc1Cl (centres undefined) here
A) no (0)
